From: patent US20260116921A1

What half-life at 20 μM was measured for each of the following?
Assay: in vitro
Settings: cynomolgus monkey, 20% fecal homogenate (supernatant), anaerobic, pH 6.8

INPUT: What does the data say about its half-life at 20 μM? Entry: CC(=O)NCCCC[C@H](NC(=O)[C@](C)(CC(C)C)NC(=O)[C@H](Cc1ccc2ccccc2c1)NC(=O)[C@H](Cc1ccc(OCCN)cc1)NC(=O)[C@H]1NC(=O)[C@H](CCC(N)=O)NC(=O)[C@H](Cc2c[nH]c3c(C)cccc23)NC(=O)[C@H]([C@@H](C)O)NC(=O)[C@H](CC(N)=O)NC(=O)[C@@H](NC(C)=O)C(C)(C)SSC1(C)C)C(=O)N[C@@H](C)C(=O)NCCC(N)=O [compound 207]
OUTPUT: > 24 h

INPUT: Lookup CC(=O)N[C@@H]1C(=O)N[C@@H](CC(N)=O)C(=O)N[C@@H]([C@@H](C)O)C(=O)N[C@@H](Cc2c[nH]c3c(C)cccc23)C(=O)N[C@@H](CCC(N)=O)C(=O)N[C@H](C(=O)N[C@@H](Cc2ccc(OCCN)cc2)C(=O)N[C@@H](Cc2ccc3ccccc3c2)C(=O)N[C@@](C)(CCCCN)C(=O)N[C@@H](CCC(=O)O)C(=O)N[C@@H](CC(N)=O)C(=O)NCCC(N)=O)C(C)(C)SSC1(C)C [compound 282]
OUTPUT: 22 h

====

What IC50 was measured for each of the following?
Target: IL-23R (Homo sapiens, UniProt Q5VWK5)
Sequence (Q5VWK5 24-629): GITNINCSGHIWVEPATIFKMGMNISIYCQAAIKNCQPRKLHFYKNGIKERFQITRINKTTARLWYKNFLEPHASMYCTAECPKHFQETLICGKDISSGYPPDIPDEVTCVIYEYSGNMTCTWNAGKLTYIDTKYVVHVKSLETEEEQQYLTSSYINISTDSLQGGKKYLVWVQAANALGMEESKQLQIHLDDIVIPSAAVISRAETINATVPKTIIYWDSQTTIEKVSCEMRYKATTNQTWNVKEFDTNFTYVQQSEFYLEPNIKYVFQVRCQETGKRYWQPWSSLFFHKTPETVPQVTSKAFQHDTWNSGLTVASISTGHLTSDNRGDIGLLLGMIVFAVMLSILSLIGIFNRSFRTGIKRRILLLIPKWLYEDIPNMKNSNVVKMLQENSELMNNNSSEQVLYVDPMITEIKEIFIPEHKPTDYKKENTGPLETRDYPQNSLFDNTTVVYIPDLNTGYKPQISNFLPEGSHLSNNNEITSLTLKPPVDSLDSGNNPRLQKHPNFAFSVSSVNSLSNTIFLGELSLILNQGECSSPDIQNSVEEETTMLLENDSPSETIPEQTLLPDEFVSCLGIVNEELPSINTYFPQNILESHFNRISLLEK
Experiment: DB cells IL23R pSTAT3 cell assay (pStat3 HTRF)
Assay type: cell-based
Settings: Table E3; DB cells, IL-23 0.5 nM, 30 minutes at 37° C.; read-out: pStat3 HTRF (IC50)
Bridge positions count the residues as written; N and C are the ends. Square brackets hold non-standard residues; d marks the D form. Peptide text beside a SMILES is read from it. Trp(7-Me) = Cc1cccc2c(C[C@H](N)C(=O)O)c[nH]c12; 2Nal = N[C@@H](Cc1ccc2ccccc2c1)C(=O)O; AEF = NCCOc1ccc(C[C@H](N)C(=O)O)cc1; Cit = NC(=O)NCCC[C@H](N)C(=O)O; Pen = CC(C)(S)[C@H](N)C(=O)O; αMeK = C[C@](N)(CCCCN)C(=O)O

INPUT: Form field: IC50 recorded for CC(=O)N[C@@H]1C(=O)N[C@@H](CC(N)=O)C(=O)N[C@@H]([C@@H](C)O)C(=O)N[C@@H](Cc2c[nH]c3c(C)cccc23)C(=O)N[C@@H](CCC(N)=O)C(=O)N[C@H](C(=O)N[C@@H](Cc2ccc(OCCN)cc2)C(=O)N[C@@H](Cc2ccc3ccccc3c2)C(=O)N[C@@](C)(CCCCN)C(=O)NC(C)(C)C(=O)N[C@@H](CC(N)=O)C(=O)NCCC(N)=O)C(C)(C)SSC1(C)C with IL-23R (Homo sapiens, UniProt Q5VWK5) (enter value)
OUTPUT: 1 to 10 nM

INPUT: Lookup CC(=O)NCCCC[C@H](NC(=O)[C@](C)(CCCCN)NC(=O)[C@H](Cc1ccc2ccccc2c1)NC(=O)[C@H](Cc1ccc(OCCN)cc1)NC(=O)[C@H]1NC(=O)[C@H](CCCNC(N)=O)NC(=O)[C@H](Cc2c[nH]c3c(C)cccc23)NC(=O)[C@H]([C@@H](C)O)NC(=O)[C@H](CC(N)=O)NC(=O)[C@@H](NC(C)=O)C(C)(C)SSC1(C)C)C(=O)N[C@@H](CC(N)=O)C(=O)N[C@H](Cc1ccccc1)C(N)=O [compound 257] (Ac-[Pen]NT[Trp(7-Me)][Cit][Pen][AEF][2Nal][αMeK]K(Ac)N[dF]-NH2; disulfide 1-6)
OUTPUT: 1 to 10 nM

====

What IC50 was measured for each of the following?
Molecular target: IL-23R (Homo sapiens, UniProt Q5VWK5)
Assay: DB cells IL23R pSTAT3 cell assay (pStat3 HTRF)
Format: cell-based
Conditions: Table E3; DB cells, IL-23 0.5 nM, 30 minutes at 37° C.; read-out: pStat3 HTRF (IC50)
Numbered stars: 1 amine (or outer) side, 2 acyl side, 3 side chain; on linkers, the order of the positions; unused ones are H or OH. Bridge positions count the residues as written; N and C are the ends. Square brackets hold non-standard residues; d marks the D form. Peptide text beside a SMILES is read from it. X1 = CCc1cccc2c(C[C@H](N[*:1])C(=O)[*:2])c[nH]c12; Trp(7-Me) = Cc1cccc2c(C[C@H](N)C(=O)O)c[nH]c12; Trp(1-Me) = Cn1cc(C[C@H](N)C(=O)O)c2ccccc21; 2Nal = N[C@@H](Cc1ccc2ccccc2c1)C(=O)O; AEF = NCCOc1ccc(C[C@H](N)C(=O)O)cc1; Cit = NC(=O)NCCC[C@H](N)C(=O)O; Pen = CC(C)(S)[C@H](N)C(=O)O; αMeK = C[C@](N)(CCCCN)C(=O)O; Aib = CC(C)(N)C(=O)O; βAla = NCCC(=O)O

INPUT: What does the data say about its IC50? Entry: CC(=O)NCCCC[C@H](NC(=O)[C@](C)(CCCCN)NC(=O)[C@H](Cc1ccc2ccccc2c1)NC(=O)[C@H](Cc1ccc(OCCN)cc1)NC(=O)[C@H]1NC(=O)[C@H](CCCNC(N)=O)NC(=O)[C@H](Cc2c[nH]c3c(C)cccc23)NC(=O)[C@H]([C@@H](C)O)NC(=O)[C@H](CC(N)=O)NC(=O)[C@@H](NC(C)=O)C(C)(C)SSC1(C)C)C(=O)N[C@@H](CC(N)=O)C(=O)N[C@H](C(N)=O)[C@@H](C)O [compound 262] (Ac-[Pen]NT[Trp(7-Me)][Cit][Pen][AEF][2Nal][αMeK]K(Ac)NT-NH2; disulfide 1-6)
OUTPUT: 1 to 10 nM

INPUT: Lookup CC(=O)NCCCC[C@@H]1NC(=O)[C@H](Cc2c[nH]c3c(C)cccc23)NC(=O)[C@H]([C@@H](C)O)NC(=O)[C@H](CC(N)=O)NC(=O)[C@@H](NC(C)=O)C(C)(C)SSC(C)(C)[C@@H](C(=O)N[C@@H](Cc2ccc(OCCN)cc2)C(=O)N[C@@H](Cc2ccc3ccccc3c2)C(=O)N[C@@](C)(CCCCN)C(=O)N[C@@H](CCCCNC(C)=O)C(=O)N[C@@H](CO)C(=O)NCCC(N)=O)NC1=O [compound 271]
OUTPUT: 1 to 10 nM

INPUT: Lookup CC(=O)NCCCC[C@H](NC(=O)[C@](C)(CCCCN)NC(=O)[C@H](Cc1cn(C)c2ccccc12)NC(=O)[C@H](Cc1ccc(OCCN)cc1)NC(=O)[C@H]1NC(=O)[C@H](CCC(N)=O)NC(=O)[C@H](Cc2c[nH]c3c(C)cccc23)NC(=O)[C@H]([C@@H](C)O)NC(=O)[C@H](CC(N)=O)NC(=O)[C@@H](NC(C)=O)C(C)(C)SSC1(C)C)C(=O)N[C@@H](CC(N)=O)C(=O)NCCC(N)=O [compound 283] (Ac-[Pen]NT[Trp(7-Me)]Q[Pen][AEF][Trp(1-Me)][αMeK]K(Ac)N[βAla]-NH2; disulfide 1-6)
OUTPUT: 1 to 10 nM

INPUT: Lookup CC(=O)NCCCC[C@H](NC(=O)[C@](C)(CCCCN)NC(=O)[C@H](Cc1ccc2ccccc2c1)NC(=O)[C@H](Cc1ccc(OCCN)cc1)NC(=O)[C@H]1NC(=O)[C@H](CCCNC(N)=O)NC(=O)[C@H](Cc2c[nH]c3c(C)cccc23)NC(=O)[C@H]([C@@H](C)O)NC(=O)[C@H](CC(N)=O)NC(=O)[C@@H](NC(C)=O)C(C)(C)SSC1(C)C)C(=O)N[C@@H](CC(N)=O)C(=O)NC(C)(C)C(=O)NCC(N)=O [compound 341] (Ac-[Pen]NT[Trp(7-Me)][Cit][Pen][AEF][2Nal][αMeK]K(Ac)N[Aib]G-NH2; disulfide 1-6)
OUTPUT: < 1 nM

INPUT: Lookup CC(=O)NCCCC[C@H](NC(=O)[C@](C)(CCCCN)NC(=O)[C@H](Cc1ccc2ccccc2c1)NC(=O)[C@H](Cc1ccc(OCCN)cc1)NC(=O)[C@H]1NC(=O)[C@H](CCCCNC(=O)[C@H](C)N)NC(=O)[C@H](Cc2c[nH]c3c(C)cccc23)NC(=O)[C@H]([C@@H](C)O)NC(=O)[C@H](CC(N)=O)NC(=O)[C@@H](NC(C)=O)C(C)(C)SSC1(C)C)C(=O)N[C@@H](CC(N)=O)C(=O)N[C@H](CC(C)C)C(N)=O [compound 314]
OUTPUT: 1 to 10 nM

INPUT: Lookup CC(=O)NCCCC[C@H](NC(=O)[C@](C)(CCCCN)NC(=O)[C@H](Cc1ccc2ccccc2c1)NC(=O)[C@H](Cc1ccc(OCCN)cc1)NC(=O)[C@H]1NC(=O)[C@H](CCC(N)=O)NC(=O)[C@H](Cc2c[nH]c3ccc(C#N)cc23)NC(=O)[C@H]([C@@H](C)O)NC(=O)[C@H](CC(N)=O)NC(=O)[C@@H](NC(C)=O)C(C)(C)SSC1(C)C)C(=O)N[C@@H](CC(N)=O)C(=O)N[C@H](CCCCN)C(N)=O [compound 296]
OUTPUT: 1 to 10 nM

INPUT: Lookup CC(=O)NCCCC[C@H](NC(=O)C1(NC(=O)[C@H](Cc2ccc3ccccc3c2)NC(=O)[C@H](Cc2ccc(OCCN)cc2)NC(=O)[C@H]2NC(=O)[C@H](CCC(N)=O)NC(=O)[C@H](Cc3c[nH]c4c(C)cccc34)NC(=O)[C@H]([C@@H](C)O)NC(=O)[C@H](CC(N)=O)NC(=O)[C@@H](NC(C)=O)C(C)(C)SSC2(C)C)CCC1)C(=O)N[C@@H](CC(N)=O)C(=O)NCCC(N)=O [compound 277]
OUTPUT: < 1 nM

INPUT: Lookup CC(=O)NCCCC[C@@H]1NC(=O)[C@H](Cc2c[nH]c3c(C)cccc23)NC(=O)[C@H]([C@@H](C)O)NC(=O)[C@H](CC(N)=O)NC(=O)[C@@H](NC(C)=O)C(C)(C)SSC(C)(C)[C@@H](C(=O)N[C@@H](Cc2ccc(OCCN)cc2)C(=O)N[C@@H](Cc2ccc3ccccc3c2)C(=O)N[C@@](C)(CCCCN)C(=O)N[C@@H](CCCCNC(C)=O)C(=O)N[C@@H](CC(N)=O)C(=O)N[C@@H](CC(C)C)C(N)=O)NC1=O [compound 244]
OUTPUT: 1 to 10 nM

INPUT: Lookup CCc1cccc2c(C[C@@H]3NC(=O)[C@H]([C@@H](C)O)NC(=O)[C@H](CC(N)=O)NC(=O)[C@@H](NC(C)=O)C(C)(C)SSC(C)(C)[C@@H](C(=O)N[C@@H](Cc4ccc(OCCN)cc4)C(=O)N[C@@H](Cc4ccc5ccccc5c4)C(=O)N[C@@](C)(CCCCN)C(=O)N[C@@H](CCCCNC(C)=O)C(=O)N[C@@H](CC(N)=O)C(=O)N[C@H](CC(C)C)C(N)=O)NC(=O)[C@H](CCCCNC(C)=O)NC3=O)c[nH]c12 [compound 284] (Ac-[Pen]NT[X1]K(Ac)[Pen][AEF][2Nal][αMeK]K(Ac)N[dL]-NH2; disulfide 1-6)
OUTPUT: < 1 nM
